# assay notes: In vivo pharmacokinetic study, single intraperitoneal/oral dose, plasma concentration by RP-HPLC
# Parameters: species or system New Zealand White rabbits
# settings: both sexes, New Zealand White, rabbit, plasma, po, 3.64 mg/kg, derivative 3, single oral dose 5.46 mg/1.5 kg rabbit (3.64 mg/kg), mean ± SEM, n = 6; read-out: tmax (time to reach the peak plasma concentration)
quantity name: Tmax (h)

>>> df
                                   compound  observed_value
0  COc1ccc(/C=C/C(=O)c2cc(OC)c(OC)c(OC)c2)cc1OC [Derivative 3]            2.83

###

# assay notes: In vivo pharmacokinetic study, single intraperitoneal/oral dose, plasma concentration by RP-HPLC
# Parameters: species or system New Zealand White rabbits
# settings: both sexes, New Zealand White, 4.85 mg/kg; derivative 2, single oral dose 7.28 mg/1.5 kg rabbit, plasma, mean ± SEM, n = 5; read-out: C0 (concentration of administrated drug at time zero)
# Source text: The ten healthy adult New Zealand White rabbits weighing between 1.75–2.75 kg of either sex were procured from the institute Advanced Facility for Small Animal Research, PGIMER Chandigarh, after approval from the Institutional Animal Ethics Committee Ref. No. 69/IAEC/418 as per the Committee for the Purpose of Control and Supervision of Experiments on Animals (CPCSEA) guidelines. […]
quantity name: C0 (ng/mL)

>>> df
                              smiles_record  unit_descriptor  observed_value
0  COc1ccc(/C=C/C(=O)c2cc(OC)c(OC)c(OC)c2)cc1            ng/mL             986
